# ASSAY COMMENT: yeast display, Sf9 membrane polyspecificity reagent, FACS + sequencing; frameworks hold sequencing errors
MEASURE NAME: polyreactivity (PSR sort gate)

// known answers, use as guide
SEQUENCE TEXT: QVQLVESGGGLVQAGGSLRLSCAASGNTCYQYAMGWYRQAPGKERELVAAISSSGGSTYYADSVKGRFTISRDNAQNTVYLQMNSLKTEDTAVYYCATDKWYGYYYWGQGTQVTVSS
polyreactivity (PSR sort gate): low polyreactivity
--
SEQUENCE TEXT: QVQLVESGGGLVQAGGSLRLSCAASGRTFVLYTMGWYRQAPGKERELVAVGSTYYADSVKGRFTISRDNAKNTVYLQMNSLIAEDTAVYYCAADIHWYGYYYWGLGTQVTVSS
polyreactivity (PSR sort gate): high polyreactivity
--
SEQUENCE TEXT: QVQLVESGGGLVQAGGSLRLSCAASGRTFILNAMGWYRQAPGKERELVAAISWSGGSTYYADSVKGRFTISRDTAKNTVYLQMNSLKPEDTAVHYCATVRAWIPSGDYEYWGQGTQVTVSS
polyreactivity (PSR sort gate): low polyreactivity
--
SEQUENCE TEXT: QVQLVESGGGLVQAGGSLRLSCAASGNIFGVDAMGWYRQAPGKERELVATITTGGSTYYADSVKGRFTISRDNAKNTVYLQMNSLKPADTAVYYCAADVGGGNYVYYGNDYDDGYWGQGTQVTVSS
polyreactivity (PSR sort gate): low polyreactivity
--
SEQUENCE TEXT: QVQLVESGGGLVQAGGSLRLSCAASGLIFGTNAMGWYRQAPGKERELVAYITSGGSTYADSVKGRFTISRDNAKNTVYLQMNSLKPEDTAVYYCAAYVFWAFYEYDYWGQGTQVTVSS
polyreactivity (PSR sort gate): low polyreactivity
--
SEQUENCE TEXT: QFQLVESGGGLVQAGGSLRLSCAASGSTFFVYDMGWYRQATGKEGELVAAISISDGGTYYADSVKGRFTISRDNAKNTVYLQMKSLKPEDTAVYYCAADYSERYFPGYDYWGQGTLVTVSS
polyreactivity (PSR sort gate): low polyreactivity
--
SEQUENCE TEXT: QVQLVESGGGLVQAGGSLSLSCAASGFTFFYNAMGWYRQAPGKERELVASITVSTSGTDYADSVKGRFTISLDNAKNTVYLQMNSLKPEDTAVYYCATDQVLVYSDLQDTAYYWGQGTQVTVSS
polyreactivity (PSR sort gate): low polyreactivity
--
SEQUENCE TEXT: QVQLVESGGGLVQAGGSLRLSCAASGFILSRYAMGWYRPAPGTERELVAAITSSGGSTYYADSVKGRFTISRDNAKNTVYLQMNSLKPEDTAVYYCAADRGRYSYNFWGQGTQVTVSS
polyreactivity (PSR sort gate): high polyreactivity
--
SEQUENCE TEXT: QVQLVESGGGLVQAGGSLRLSCAASGFTFSRNVMGWYRQAPGKERELVADITLSGASTYYADSVKGRFTISRDNAKNTVYLQMNSLKPEDTAVYYCAADPYHWRWGWRLDYWGQGTQVTVSS
polyreactivity (PSR sort gate): low polyreactivity
--
SEQUENCE TEXT: QVQLVESGGGLVQAGGSLRLSCAASGSTFDYNAMGWYRPAPGKERELVAVISSGTRTYYADSVKGRFTISRDNAKNTVYLQMNSLKPEDTAVYFCNKRFYPEHYYWGQGTLVTVSS
polyreactivity (PSR sort gate): high polyreactivity

Please examine the following record next.
**Query** So what does the record say about polyreactivity (PSR sort gate) for `QVQLEDSGGGLVQAGGSLRLSCAASGIIFYSYAMGWYRQAPVKERELVATISFSGDNTYYADSVKGRFTISRDNAKNTVYLQMNSLKPEDTAVYYCAAASTYGGYYYSVSFEYWGQGTQVTVSS` ?
**Result** low polyreactivity

---

# ASSAY COMMENT: yeast display, Sf9 membrane polyspecificity reagent, FACS + sequencing; frameworks hold sequencing errors

SEQUENCE TEXT: QVQLVESGGGLFQAGGSLRLSCAASGSSFPFYAMGWYRQAPGKERELVASISSGGSTNYADSVKGRFTISRDNAKNTVYLQMNSLKPEDTAVYYCNADVPYRWDTWFQVVYPESYDYWGQGTQVTVSS
polyreactivity (PSR sort gate): low polyreactivity

SEQUENCE TEXT: HVQLVESGGGLVQAGGSLRLSCAASGSIFVPYTMGWSRQAPGKERELVAAINSSDDSKFYADSVKGRFTISRDNAKNPVYLQMNSLKPEDTAVYYCAASYYYTIGPYFRKFDWGQGTQVTVSS
polyreactivity (PSR sort gate): low polyreactivity

---

# ASSAY COMMENT: yeast display, Sf9 membrane polyspecificity reagent, FACS + sequencing; frameworks hold sequencing errors
MEASURE NAME: polyreactivity (PSR sort gate)

SEQUENCE TEXT: QVQLVESGGGLVQAGGSLRLSCAASGRILRTYAMGWYRPAPGKERELVAAISRSGGSTYYADSVKGRFTISRDNAKNTVYLQMNSLKPEDTAVYYCNKAYGGRGYKYEYWGQGTQVTVSS
MEASURE NAME: polyreactivity (PSR sort gate)
ENDPOINT VALUE: high polyreactivity
//
SEQUENCE TEXT: QVQLVESGGGLVQAGGSLRLSCAASGSTINFYAMGWYRQAPGKERELVAAIRVSSGSTYYADSVKGRFTISRDNAKNTVYLQMDSLKPEDTAVYYCAAYLKVRSPRDGYDYWGQGTQVTVSS
MEASURE NAME: polyreactivity (PSR sort gate)
ENDPOINT VALUE: high polyreactivity
//
SEQUENCE TEXT: QVQLVESGGGLVQAGGSLRLSCAASGRIFGYYAMGWYRQAPGKERELVAGINSAGSTNYADSVKGRFTISRDNAKNTVYLQMNSLKPEDTAVYYCAARIRLSLRTGYDYWGQGTQVTVSS
MEASURE NAME: polyreactivity (PSR sort gate)
ENDPOINT VALUE: high polyreactivity
//
SEQUENCE TEXT: QVHLVESGGVLVQAGGSLRLSCAASGFTFNRYAMGWYRQAPGKERELVAAITSAGNTYYADSVKARFTNSRDNGKNTVYLQMNSMKPEDTAVYYCLNGRYWRRYDYWGQGTQVTVSS
MEASURE NAME: polyreactivity (PSR sort gate)
ENDPOINT VALUE: high polyreactivity

---

# ASSAY COMMENT: yeast display, Sf9 membrane polyspecificity reagent, FACS + sequencing; frameworks hold sequencing errors
MEASURE NAME: polyreactivity (PSR sort gate)

Study these solved cases before continuing.
SEQUENCE TEXT: QVQLVESGGGLVQAGGSLRLSCAASGSTFTRYAMGSYRQAPGKERELVAAISRTGGSRTYYADSVKGRFTISRDNAKNTVYLQMNSLNPEDTAVYYCAKGYWRYLGFLYFFPARDYWGQGTQVTVSS
polyreactivity (PSR sort gate): high polyreactivity
--
SEQUENCE TEXT: QVQLVESGGGLVQAGVSLRLSCAASGRTFFYNAMGWYRQAPGKERELVAAISSGGGYTYYADSVKGRFTISRDNAKNTVYLQMNSLKPEDTAVYYCAAASYRQPGYGYWGQGTQVTVSS
polyreactivity (PSR sort gate): high polyreactivity
--
SEQUENCE TEXT: QVQLVESVGGLVQAGGSLRLSCAASGSTFGYNAMGWYRHAPGKEMELVAAITRSSSRTYYADYVKGRFTISRDNAKNTVYLQMNSLKPEDTAVYYCAKVRYVVGSIFNYSYNYWGQGTQVTVSS
polyreactivity (PSR sort gate): high polyreactivity
--
SEQUENCE TEXT: QVQLVESGGGLVQAGGSLRLSCAASGSIFKPYAMGWYRQAPGKERELVAAISSSGGSTYYADSVKGRFTISRDNAKNTVYLQMNSLKPEDTAVYYCNADWYYAGYGYWGQGTQVTVSS
polyreactivity (PSR sort gate): low polyreactivity
--
SEQUENCE TEXT: QVQLVESGGGLVQAGGRLRLSSADYGITIELYVMGWYRQAPGKERELVAAINRGTSTYYADSVKGRFTISRDNAKNTVYLQMNSLKPEDTAVYYCAAESGVVALYRYDYWGQGTQVTVSS
polyreactivity (PSR sort gate): low polyreactivity
--
SEQUENCE TEXT: QVQLVESGGGLVQAGGSLRLSSAASGFTFASYAMGWYRQAPGKERELVAAIDSDDSTNYADSVKGRFTISRDNAKNTVYLHMNSLKPEDTSVYYCAADEGPYYGIYEYYYWGQGTQVTVSS
polyreactivity (PSR sort gate): high polyreactivity
--
SEQUENCE TEXT: QVQLVESGGGLVQAGGSLRLSCAASGFIFRDYAMGWYRQAPGKERELVAAIDYSGGSTNYADSVKGRFTISRDNAKNTVYLQMNSLKPEDTAVYYCNAEYTWHRGYEYWGQGTQVTVSS
polyreactivity (PSR sort gate): low polyreactivity
--
SEQUENCE TEXT: QVQLVESGGGLVQAGGSLRLSCAASGSTFVGYAMGWYRQAPGKERELVADIDSIGGSTYYADSVKGRFTISRDNAKNTVYLQMNSLKPEDTAVYYCAARRFDTALVLYDYCGQGTQVTVSS
polyreactivity (PSR sort gate): low polyreactivity
--
SEQUENCE TEXT: QVQLVESGGGLVQAGGSLRLSCAASGRILYVYVMGWYRQAPGKERELVAAITTSGDSTYYADSVKGRFTISRDNAKNTVYLQMNRLKPEDTAVYYCNAEEHDYVAHMDYWGQGTQVTVSS
polyreactivity (PSR sort gate): low polyreactivity
--
SEQUENCE TEXT: QVQLVESGGGLVQAGGSLRLSCAASGGIFFINAMGWYRQAPGKERELVAAISISDGSTYYADSVKGRFTISRDNAKNTVYLQMNSLKPEDTAVYYCAAEGFDWDSPEMEYWGQGTQVTGSS
polyreactivity (PSR sort gate): low polyreactivity

**Query** Given `QVQLVESGGGLVQAGGSLRLSCAASGLTFVQYAMGWYRQAPGKERELVATISKSGGFTYYADSVKGRFTISRDNATNTVYLQMNSLKPEDTAVYYCAAAWYYSSRGFHASWGHDYWGQGTQVTVSS` , state its recorded polyreactivity (PSR sort gate).
**Result** low polyreactivity

**Query** Can you look up the measured polyreactivity (PSR sort gate) of `QVQLVESGGGLVQAGGSLRLSCAASGSTFDYYAMGWYRQAPGKERELVAAISWSGGSTYYADSVKGRFTISRDNEKNTVYLQMNSLKPEDTAVYYCAALYSYISGGYIYDYWGQGTQVTVSS` for me?
**Result** low polyreactivity

**Query** What value of polyreactivity (PSR sort gate) has been reported for the following sequence? `QVQLVESGGGLVQAGGSLRLSCAASGITLTVYTMGWYRQAPGKERKLVAAITYGGTSTYYADSVKGRFTISRDNAKNTVYLQMNSLKPEDTAVYYCNVAFGYSYRGRDYWGQGTQVTVSS`
**Result** high polyreactivity
